Each recorded value in this set is attributed to patent US20250376461A1.

Target: mouse TRPM3α2 (mTRPM3) ion channel (Mus musculus, UniProt J9SQF3)
Sequence (J9SQF3 1-1709 isoform J9SQF3-12): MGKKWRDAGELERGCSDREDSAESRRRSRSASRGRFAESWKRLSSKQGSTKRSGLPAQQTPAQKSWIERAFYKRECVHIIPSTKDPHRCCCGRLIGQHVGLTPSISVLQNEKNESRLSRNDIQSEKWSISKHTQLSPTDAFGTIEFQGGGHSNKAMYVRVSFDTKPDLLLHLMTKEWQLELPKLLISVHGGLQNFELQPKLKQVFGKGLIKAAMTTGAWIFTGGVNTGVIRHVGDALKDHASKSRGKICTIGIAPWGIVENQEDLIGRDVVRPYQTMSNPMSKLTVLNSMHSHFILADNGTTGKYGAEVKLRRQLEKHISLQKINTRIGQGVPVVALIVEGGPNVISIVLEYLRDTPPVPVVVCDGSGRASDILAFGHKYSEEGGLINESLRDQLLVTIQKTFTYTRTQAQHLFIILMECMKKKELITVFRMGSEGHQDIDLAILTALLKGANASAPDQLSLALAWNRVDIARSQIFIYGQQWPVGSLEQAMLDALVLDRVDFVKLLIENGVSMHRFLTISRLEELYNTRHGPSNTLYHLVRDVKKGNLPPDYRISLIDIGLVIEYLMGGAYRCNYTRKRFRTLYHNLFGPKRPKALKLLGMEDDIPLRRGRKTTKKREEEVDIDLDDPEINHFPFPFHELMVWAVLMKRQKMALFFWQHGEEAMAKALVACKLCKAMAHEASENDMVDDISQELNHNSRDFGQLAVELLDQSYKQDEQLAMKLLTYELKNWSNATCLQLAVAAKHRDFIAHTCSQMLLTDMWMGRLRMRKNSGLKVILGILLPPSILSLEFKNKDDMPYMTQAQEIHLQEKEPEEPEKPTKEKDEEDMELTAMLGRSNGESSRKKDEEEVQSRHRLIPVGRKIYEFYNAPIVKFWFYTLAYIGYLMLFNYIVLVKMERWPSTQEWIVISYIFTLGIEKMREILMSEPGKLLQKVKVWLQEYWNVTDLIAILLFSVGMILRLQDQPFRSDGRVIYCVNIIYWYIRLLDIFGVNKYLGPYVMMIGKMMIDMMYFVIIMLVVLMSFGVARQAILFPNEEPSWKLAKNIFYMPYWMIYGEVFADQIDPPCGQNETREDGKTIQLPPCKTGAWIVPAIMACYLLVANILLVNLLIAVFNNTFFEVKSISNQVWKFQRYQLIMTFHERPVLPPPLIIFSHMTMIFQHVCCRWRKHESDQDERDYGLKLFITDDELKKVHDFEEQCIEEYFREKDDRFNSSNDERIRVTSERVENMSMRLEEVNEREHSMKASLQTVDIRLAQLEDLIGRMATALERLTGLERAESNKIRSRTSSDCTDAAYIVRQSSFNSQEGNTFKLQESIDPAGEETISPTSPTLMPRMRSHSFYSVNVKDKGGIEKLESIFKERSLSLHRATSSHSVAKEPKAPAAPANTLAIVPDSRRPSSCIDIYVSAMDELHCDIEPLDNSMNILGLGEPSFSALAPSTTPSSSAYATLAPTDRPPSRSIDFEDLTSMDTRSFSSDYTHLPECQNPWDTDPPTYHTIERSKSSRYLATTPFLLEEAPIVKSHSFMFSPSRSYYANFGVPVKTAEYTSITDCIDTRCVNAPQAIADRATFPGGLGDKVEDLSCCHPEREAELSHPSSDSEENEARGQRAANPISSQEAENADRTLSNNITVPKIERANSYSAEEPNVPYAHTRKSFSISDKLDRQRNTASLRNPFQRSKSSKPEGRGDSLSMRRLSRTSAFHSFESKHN
Test: TRPM3 ion channel driven Ca2+ uptake, Fluo-4 AM assay, mTRPM3alpha2 overexpressing flip-in HEK293 cells stimulated with pregnenolone sulfate (50 μM)
Conditions: mTRPM3 overexpressing HEK293 cells stimulated with pregnenolone sulfate (50 μM), activity ranges A, B, C
pIC50: −log10 of the molar value.
RECORDED_METRIC: pIC50

Worked examples follow.
Cc1ncc(COc2ccc3nn(C)c(C(=O)NC(C)(CO)C(N)=O)c3c2)s1 (single isomer, unassigned) [Cpd 157 - En1] :: 4.70 to 6.00
Cn1nc2ccc(OCc3ccccn3)cc2c1C(=O)NC(C)(CO)CC(F)F (single isomer, unassigned) [Cpd 201 - En2] :: > 6.00
Cn1nc2ccc(OCc3ccccc3C(F)F)cc2c1C(=O)NC(C)(CO)C(N)=O (single isomer, unassigned) [Cpd 191 - En1] :: > 6.00
Cn1nc2ccc(OCc3ccccn3)cc2c1C(=O)NC(CCO)c1ccc(F)cc1 (single isomer, unassigned) [Cpd 223 - En2] :: < 4.70
Cn1ccc(NC(=O)c2c3cc(OCc4ccnn4C)ccc3nn2C)n1 [Cpd 006] :: < 4.70

What value of pIC50 has been reported for the following compound? Cn1nc2ccc(OCc3ccccn3)cc2c1C(=O)NC1(CO)CCC1 [Cpd 086] 4.70 to 6.00

What value of pIC50 has been reported for the following compound? Cn1nc2ccc(OCc3ccccc3)cc2c1C(=O)NC1(C(N)=O)COC1 [Cpd 041] 4.70 to 6.00

What value of pIC50 has been reported for the following compound? Cc1ncc(COc2ccc3nn(C)c(C(=O)NC(C)(CO)C(N)=O)c3c2)s1 (single isomer, unassigned) [Cpd 157 - En2] > 6.00

What value of pIC50 has been reported for the following compound? C[C@@H](NC(=O)c1c2cc(OCc3ccccn3)ccc2nn1C)C(N)=O [Cpd 083] 4.70 to 6.00

====

Target: mouse TRPM3α2 (mTRPM3) ion channel (Mus musculus, UniProt J9SQF3)
Experiment: TRPM3 ion channel driven Ca2+ uptake, Fluo-4 AM assay, mTRPM3alpha2 overexpressing flip-in HEK293 cells stimulated with pregnenolone sulfate (50 μM)
Details: mTRPM3 overexpressing HEK293 cells stimulated with pregnenolone sulfate (50 μM), activity ranges A, B, C
Method: Monitoring the TRPM3 Ion Channel Driven Ca2+ Uptake. […] For mTRPM3, the intracellular Ca^2+ was measured with a Calcium responsive dye, Fluor-4 AM ester (Invitrogen). […] Channel inhibition was calculated compared to a non-PS stimulated control versus a condition stimulated with PS (50 μM) with vehicle. […]
pIC50: −log10 of the molar value.
RECORDED_METRIC: pIC50

Cn1nc2ccc(OCc3ccccn3)cc2c1C(=O)NC(C)(CO)CC(F)F (single isomer, unassigned) [Cpd 201 - En1] :: > 6.00
Cn1nc2ccc(OCc3cccnc3C(F)(F)F)cc2c1C(=O)NC1(C(N)=O)CCOC1 (single isomer, unassigned) [Cpd 178 - En1] :: > 6.00
Cn1nc2ccc(OCc3cccnc3C(F)(F)F)cc2c1C(=O)NC1CCNC1=O (stereo not shown) :: > 6.00

Next item in the queue.
What value of pIC50 has been reported for the following molecule? Cn1nc2ccc(OCc3cccnc3C(F)(F)F)cc2c1C(=O)NC1(CO)CCNC1=O (single isomer, unassigned) [Cpd 177 - En2] 4.70 to 6.00
